IC12 listing for selected molecules.
Test system: Saccharomyces cerevisiae
Experiment: Inhibition of FKBP12 in yeast assessed as reduction in cell proliferation

[
  {
    "Entry Smiles": "CO[C@@H]1C[C@H](C[C@@H](C)[C@@H]2CC(=O)[C@H](C)/C=C(\\C)[C@@H](O)[C@@H](OC)C(=O)[C@H](C)C[C@H](C)/C=C/C=C/C=C(\\C)C(=O)C[C@@H]3CC[C@@H](C)[C@@](O)(O3)C(=O)C(=O)N3CCCC[C@H]3C(=O)O2)CC[C@H]1O",
    "IC12 / nM": 210
  },
  {
    "Entry Smiles": "CO[C@@H]1C[C@H](C[C@@H](C)[C@@H]2CC(=O)[C@H](C)/C=C(\\C)[C@@H](O)[C@@H](OC)C(=O)[C@H](C)C[C@H](C)/C=C/C=C/C=C(\\C)[C@@H](OCc3ccccc3)C[C@@H]3CC[C@@H](C)[C@@](O)(O3)C(=O)C(=O)N3CCCC[C@H]3C(=O)O2)CC[C@H]1O",
    "IC12 / nM": 6
  },
  {
    "Entry Smiles": "CO[C@@H]1C[C@H](C[C@@H](C)[C@@H]2CC(=O)[C@H](C)/C=C(\\C)[C@@H](O)[C@@H](OC)C(=O)[C@H](C)C[C@H](C)/C=C/C=C/C=C(\\C)[C@@H](SC)C[C@@H]3CC[C@@H](C)[C@@](O)(O3)C(=O)C(=O)N3CCCC[C@H]3C(=O)O2)CC[C@H]1O",
    "IC12 / nM": 4
  },
  {
    "Entry Smiles": "CO[C@@H]1C[C@H](C[C@@H](C)[C@@H]2CC(=O)[C@H](C)/C=C(\\C)[C@@H](O)[C@@H](OC)C(=O)[C@H](C)C[C@H](C)/C=C/C=C/C=C(\\C)[C@H](c3ccc[nH]3)C[C@@H]3CC[C@@H](C)[C@@](O)(O3)C(=O)C(=O)N3CCCC[C@H]3C(=O)O2)CC[C@H]1O",
    "IC12 / nM": 28
  }
]
